Experiment: In vivo pharmacokinetics: plasma and brain exposure after IP administration
Parameters: species or system male C57BL/6 mice
Settings: male, C57BL/6, mouse, plasma, ip, 10 mg/kg, 0.083 h, individual mouse, read-out: Plasma Concentration, Individual
endpoint.name: concentration at 0.083 h (µM)
Unit µM implied. Number only.

[in] Looking for the measured concentration at 0.083 h of COc1ccc2[nH]cc(CCN(C)C)c2n1 , can you help?
[out] 7.66

----------
Target: 5-HT2B receptor (Homo sapiens, UniProt P41595)
Construct: host or cells: CHO-K1
Sequence (P41595 whole entry): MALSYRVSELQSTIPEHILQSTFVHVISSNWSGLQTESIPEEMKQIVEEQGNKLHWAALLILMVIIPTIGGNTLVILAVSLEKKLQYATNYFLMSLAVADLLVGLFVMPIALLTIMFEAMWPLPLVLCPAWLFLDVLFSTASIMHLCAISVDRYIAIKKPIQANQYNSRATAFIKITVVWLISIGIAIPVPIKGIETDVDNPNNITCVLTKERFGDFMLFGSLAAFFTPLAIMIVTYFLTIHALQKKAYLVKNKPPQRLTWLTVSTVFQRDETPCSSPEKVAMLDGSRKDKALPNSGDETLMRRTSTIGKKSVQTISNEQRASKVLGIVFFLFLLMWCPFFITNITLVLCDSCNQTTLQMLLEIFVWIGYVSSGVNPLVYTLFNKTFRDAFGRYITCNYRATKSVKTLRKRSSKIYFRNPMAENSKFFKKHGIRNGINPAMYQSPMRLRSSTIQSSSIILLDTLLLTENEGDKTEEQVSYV
Assay: FLIPR Ca2+ flux functional assay, agonist activity at 5-HT2B
Assay type: cell-based
Procedure: Activity at 5-HT2A, 5-HT2B and 5-HT2C receptors was determined using a FLIPR Ca2+ flux assay at WuXi AppTec Co. Ltd. (Hong Kong) Discovery Biology Unit according to their standard protocols. […] 10 μL of references and compounds were then transferred from the compound plate into the cell plate and the fluorescent signal was read.
pEC50: −log10 of the molar value.
endpoint.name: pEC50

[in] Can you look up pEC50 on 5-HT2B receptor (Homo sapiens, UniProt P41595) for COc1ccc2[nH]cc(CCN(C)C)c2n1 ?
[out] < 5.00

----------
Cmax values for the compounds below.
Experiment: In vivo pharmacokinetics: plasma and brain exposure after IP administration
Parameters: species or system male C57BL/6 mice
Details: mouse, plasma; male C57BL/6 mice, IP 10 mg/kg
I only need the number, in µM, no unit after it.

{"compound": "COc1ccc2[nH]cc(CCN(C)C)c2n1 [Example P-1]", "units": "µM", "Cmax": 6.53}

Below: the item to evaluate.
[in] I have this compound here, COc1nccc2[nH]cc(CCN(C)C)c12 [Example P-5] , and I need its recorded Cmax.
[out] 5.38

----------
Biological target: 5-HT2B receptor (Homo sapiens, UniProt P41595)
Construct: host or cells: CHO-K1
Assay: FLIPR Ca2+ flux functional assay, agonist activity at 5-HT2B
Assay type: cell-based
Conditions: CHO-K1 cells, Ca2+ flux; read-out: 5-HT2B EC50
pEC50: −log10 of the molar value.
endpoint.name: pEC50

{"molecule": "COc1nccc2[nH]cc(CCN(C)C(C)C)c12", "endpoint.name": "pEC50", "result": 6.21}
{"molecule": "CCN(CC)CCc1c[nH]c2ncc(OC)cc12", "endpoint.name": "pEC50", "result": "< 5.00"}
{"molecule": "CN(C)CCc1n[nH]c2cccc(O)c12 [Example P-56]", "endpoint.name": "pEC50", "result": "< 5.00"}
{"molecule": "COc1cnc2[nH]cc(CCN(C(C)C)C(C)C)c2c1", "endpoint.name": "pEC50", "result": "< 5.00"}
{"molecule": "CCCN(CCC)CCc1n[nH]c2ccc(OC)cc12", "endpoint.name": "pEC50", "result": "< 5.00"}
{"molecule": "CCCN(CCC)CCc1n[nH]c2cccc(OC)c12", "endpoint.name": "pEC50", "result": 6.31}
{"molecule": "COc1ccnc2[nH]cc(CCN(C)C(C)C)c12", "endpoint.name": "pEC50", "result": "< 5.00"}
{"molecule": "CCN(C)CCc1c[nH]c2ncc(C)cc12", "endpoint.name": "pEC50", "result": "< 5.00"}
{"molecule": "COc1ccc2[nH]nc(CCN(C)C(C)C)c2c1", "endpoint.name": "pEC50", "result": "< 5.00"}
{"molecule": "COc1nccc2[nH]cc(CCN(C)C)c12", "endpoint.name": "pEC50", "result": "< 5.00"}

[in] Param item = Cc1ccnc2[nH]cc(CCN(C)C)c12 ; retrieve measured pEC50.
[out] < 5.00
